- System: HT29 colon
- ASSAY_NOTES: NCI tumour cell line growth inhibition, 48 h; in the data active means GI50 below about 0.43 µM; inactive means the rest
One label from this list, please: class 1 = active, class 0 = inactive

INPUT: // return assay outcome for `CCOc1ccccc1/C=N\N=C(N/N=C/c1ccccc1OCC)N/N=C/c1ccccc1OCC`
OUTPUT: class 0

INPUT: Next compound up: `O=C1OC2(c3ccc(O)cc3Oc3cc(O)ccc32)c2cccc3cccc1c23`
OUTPUT: class 0

INPUT: Next compound up: `ClCc1ccccc1Cn1cnc2nc(Cl)nc(Cl)c21`
OUTPUT: class 1

INPUT: Next compound up: `CCN1/C(=C/C(C)=C/c2sc3ccc4ccccc4c3[n+]2CC)Sc2ccc3ccccc3c21`
OUTPUT: class 1

INPUT: Next compound up: `CCOC(=O)c1ccc(N2NC(=O)/C(=C/c3ccc([N+](=O)[O-])o3)C2=O)cc1`
OUTPUT: class 0

INPUT: Next compound up: `COc1ccc(C)c2sc(N(Cc3cccnc3)C(=O)c3ccc(C#N)cc3)nc12`
OUTPUT: class 0

INPUT: Next compound up: `Cc1nnn(C)c1-c1cnc2c3ccc(C(C)(C)O)cc3n([C@H](c3ccccc3)C3CCOCC3)c2c1`
OUTPUT: class 1

----------
For each entry below, report its TGI value.
- Tested on: 786-0 renal
- ASSAY_NOTES: NCI tumour cell line growth inhibition, 48 h
Write the number in µM without appending the unit.

INPUT: Item Fc1cc2nc3n(c2cc1F)C(c1c(F)cccc1F)SC3 (stereo not given) has what recorded TGI?
OUTPUT: 80.6

INPUT: Next compound up: `C[C@]12CC[C@H]3[C@@H](CC=C4C[C@@H](O)CC[C@@]43C)[C@@H]1C/C(=C\c1ccncc1)[C@@H]2O`
OUTPUT: 60.5

INPUT: Next compound up: NC(=O)N/N=C(\CC1OC(=O)c2ccccc21)c1ccc([N+](=O)[O-])cc1 (stereo not given)
OUTPUT: 32

----------
- Test system: MALME-3M melanoma
- ASSAY_NOTES: NCI tumour cell line growth inhibition, 48 h
For each entry below, report its TGI value.

INPUT: Item `Cc1nc(C(N)=S)sc1C(=O)CC(=O)C(=O)Nc1ccc(Br)cc1` has what recorded TGI?
OUTPUT: > 100 µM

INPUT: Next compound up: CC(NNC(=O)c1ccncc1)c1ccccc1 (stereo unspecified)
OUTPUT: > 100 µM

INPUT: Next compound up: CC1(C)C(=O)/C=C\C(=O)C(C)(C)C2=CC=C(O2)C(C)(C)C(=O)C(Br)C(Br)C(=O)C(C)(C)C2=CC=C1O2 (stereo unspecified)
OUTPUT: > 100 µM

INPUT: Next compound up: CC(C(=O)NCNC(=O)c1ccccc1)C(=O)Nc1ccccc1 (stereo unspecified)
OUTPUT: > 100 µM

INPUT: Next compound up: O=C(O)CCC(NC(=O)c1ccc(Oc2nc3ccccc3nc2C(=O)O)cc1)C(=O)O (stereo unspecified)
OUTPUT: > 100 µM

INPUT: Next compound up: CC1OC(n2cc(F)c(=O)[nH]c2=O)CCC1=O (stereo unspecified)
OUTPUT: > 100 µM

INPUT: Next compound up: `Cc1c(-c2ccccc2)c(C#N)c2nnn(-c3ccc(Cl)cc3)c(=O)n12`
OUTPUT: > 100 µM

INPUT: Next compound up: `CCCCCCCCCCCCCCCCc1c(C(=O)OC)nc(NC#N)[nH]c1=O`
OUTPUT: > 25 µM

INPUT: Next compound up: CC(=O)NC(CCCNC(=O)N(C)N=O)C(=O)NCc1ccccc1 (stereo unspecified)
OUTPUT: > 100 µM

INPUT: Next compound up: Nc1nc(Cl)c(N)c(NCC2(CO)CCC(OCc3ccccc3)C2)n1 (stereo unspecified)
OUTPUT: > 100 µM

INPUT: Next compound up: `COc1ccccc1C#C/C=C\C#Cc1ccccc1C#N`
OUTPUT: 47.7 µM

INPUT: Next compound up: Cc1cc(C)c2c(=O)n(CC(O)CN(Cc3ccccc3)CC(O)Cn3sc4nc(C)cc(C)c4c3=O)sc2n1 (stereo unspecified)
OUTPUT: 27.4 µM

INPUT: Next compound up: `COc1cc2c3c(n(CCCN=[N+]=[N-])c(=O)c2cc1OC)-c1ccc(F)cc1C3=O`
OUTPUT: > 100 µM

INPUT: Next compound up: `N#Cc1c(-c2ccc([N+](=O)[O-])cc2)c2c([nH]c1=O)-c1ccccc1CCC2`
OUTPUT: > 100 µM

INPUT: Next compound up: `NC(=O)N/N=C\CC(O)(C(F)(F)Cl)C(F)(F)Cl`
OUTPUT: > 10 µM

INPUT: Next compound up: CC(C)CNC1=NCC(C)S1 (stereo unspecified)
OUTPUT: > 100 µM

INPUT: Next compound up: `O=C1N[C@H]2C(=O)c3c(Br)sc(Br)c3[C@H]2O1`
OUTPUT: 11.3 µM

INPUT: Next compound up: `O=c1[nH]c(-c2ccc(Cl)c(Cl)c2)cn1-c1ccc(Cl)cc1`
OUTPUT: 39.7 µM

INPUT: Next compound up: `Nc1ccc(Oc2ccc(C34CC5CC(C3)CC(c3ccc(Oc6ccc(N)cc6C(F)(F)F)cc3)(C5)C4)cc2)c(C(F)(F)F)c1`
OUTPUT: 58.5 µM

INPUT: Next compound up: COC(=O)C1(Cc2ccccc2)Cc2ccccc2C1O (stereo unspecified)
OUTPUT: > 100 µM

INPUT: Next compound up: COc1ccc(C2c3ccc4ccccc4c3Oc3ncn(CCCn4ccnc4)c(=N)c32)cc1OC (stereo unspecified)
OUTPUT: 3.89 µM

INPUT: Next compound up: `COc1ccc2cc3c4cc(OC)c(OC)cc4ccn3c2c1`
OUTPUT: > 100 µM

INPUT: Next compound up: `COc1ccc(OC)c(N2CC(O)=C(c3nc4ccccc4s3)C2=N)c1`
OUTPUT: 82 µM

INPUT: Next compound up: `CN1CCN(C)C1c1ccc(C2N(C)CCN2C)cc1`
OUTPUT: > 100 µM

INPUT: Next compound up: O=S(=O)(CC(Cl)c1ccccc1)c1nc2ccccc2s1 (stereo unspecified)
OUTPUT: 23.6 µM

INPUT: Next compound up: `S=C(NCCc1ccccn1)N/N=C(\c1ccccc1)c1ccccn1`
OUTPUT: > 100 µM

INPUT: Next compound up: O=C1CCC2(c3ccc(Cl)cc3)Nc3ccccc3N12 (stereo unspecified)
OUTPUT: > 100 µM

INPUT: Next compound up: `OCc1ccc(-c2nc(-c3ccc4c(c3)OCO4)c(-c3ccccn3)[nH]2)cc1`
OUTPUT: > 25 µM

INPUT: Next compound up: `CCOc1ccccc1/C=N\N=C(N/N=C/c1ccccc1OCC)N/N=C/c1ccccc1OCC`
OUTPUT: > 100 µM

INPUT: Next compound up: `CC(C)CCN(CCC(C)C)CC(=O)Nc1ccc(S(=O)(=O)c2ccc(NC(=O)CN(CCC(C)C)CCC(C)C)cc2)cc1`
OUTPUT: 3.51 µM

INPUT: Next compound up: `CC(C)(C)c1cc(C[P+](c2ccccc2)(c2ccccc2)c2ccccc2)cc(C(C)(C)C)c1O`
OUTPUT: 0.947 µM
